test_system: Solute carrier family 12 member 5 (Homo sapiens)
Sequence (Q9H2X9 whole entry): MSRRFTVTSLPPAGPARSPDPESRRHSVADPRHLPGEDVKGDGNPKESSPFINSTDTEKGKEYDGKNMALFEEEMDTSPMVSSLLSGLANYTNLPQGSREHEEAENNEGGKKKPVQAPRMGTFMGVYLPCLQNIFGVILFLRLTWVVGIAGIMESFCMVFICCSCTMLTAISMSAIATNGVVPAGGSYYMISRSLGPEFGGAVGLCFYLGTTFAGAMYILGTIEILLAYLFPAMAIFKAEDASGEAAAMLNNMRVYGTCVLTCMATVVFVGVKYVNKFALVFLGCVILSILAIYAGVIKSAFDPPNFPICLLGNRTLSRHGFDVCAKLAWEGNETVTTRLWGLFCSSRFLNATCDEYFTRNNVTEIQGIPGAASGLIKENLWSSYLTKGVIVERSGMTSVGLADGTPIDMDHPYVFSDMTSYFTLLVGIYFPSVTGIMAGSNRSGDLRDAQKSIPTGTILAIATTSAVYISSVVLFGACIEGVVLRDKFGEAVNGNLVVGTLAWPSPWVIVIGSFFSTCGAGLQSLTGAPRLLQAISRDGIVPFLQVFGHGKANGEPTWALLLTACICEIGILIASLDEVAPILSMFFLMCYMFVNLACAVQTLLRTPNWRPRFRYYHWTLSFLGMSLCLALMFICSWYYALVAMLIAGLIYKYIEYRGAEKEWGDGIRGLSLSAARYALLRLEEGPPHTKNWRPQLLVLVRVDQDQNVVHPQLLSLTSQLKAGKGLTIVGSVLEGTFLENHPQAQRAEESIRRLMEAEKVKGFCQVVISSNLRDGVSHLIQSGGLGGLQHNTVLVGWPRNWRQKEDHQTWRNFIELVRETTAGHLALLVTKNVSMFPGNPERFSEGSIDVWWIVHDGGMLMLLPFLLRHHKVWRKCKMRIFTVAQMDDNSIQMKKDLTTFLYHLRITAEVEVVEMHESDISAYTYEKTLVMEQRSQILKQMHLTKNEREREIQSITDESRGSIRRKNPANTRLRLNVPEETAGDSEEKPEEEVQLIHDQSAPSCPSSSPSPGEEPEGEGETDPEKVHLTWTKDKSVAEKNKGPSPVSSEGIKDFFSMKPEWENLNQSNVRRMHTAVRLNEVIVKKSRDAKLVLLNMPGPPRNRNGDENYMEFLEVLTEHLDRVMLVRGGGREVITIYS
assay: KCC2 cotransport modulators, dose response, cell-based, assay 2 (AID 1723)
Parameter: EC50. Scope: all listed entries.
Quick note: number first, unit second.

In the examples that follow, each entry is paired with its recorded EC50.
[[record]]
structure_smiles_string = "O=[N+]([O-])c1ccc(-c2cn(-c3ccccc3F)c(=S)[nH]2)cc1"
val = "0.548 µM"

[[record]]
structure_smiles_string = "COc1cc(NC(=S)NC(=O)c2ccco2)ccc1NC(=O)C(C)C"
val = "14.1 µM"

[[record]]
structure_smiles_string = "N=C1SCC(=O)N1c1ncc(Cc2cccc(Cl)c2)s1"
val = "2.57 µM"

[[record]]
structure_smiles_string = "NC(=S)NN=C1C(=O)N(Cc2ccc(F)cc2)c2ccccc21"
val = "2.29 µM"

[[record]]
structure_smiles_string = "COC(=O)[C@@H](NC(=O)O[C@@H]1C(=O)c2ccc(OC)cc2O[C@H]1c1cccc(C(F)(F)F)c1)C(C)C"
val = "0.996 µM"

[[record]]
structure_smiles_string = "Oc1ccccc1CN=Nc1nc2ccccc2o1"
val = "45.3 µM"

[[record]]
structure_smiles_string = "Cc1nn(-c2nc3ccccc3[nH]2)c(N)c1-c1ccccc1"
val = "1.86 µM"

[[record]]
structure_smiles_string = "O=[N+]([O-])c1ccccc1C=C[CH+][N-]n1c(-c2ccc(Cl)cc2)n[nH]c1=S"
val = "53.1 µM"

[[record]]
structure_smiles_string = "O=c1c2ccccc2[nH]c(=S)n1CCN1CCC(=C(c2ccc(F)cc2)c2ccc(F)cc2)CC1"
val = "25.5 µM"


// below: EC50 requested for another compound
## Task Give the reported EC50 for `S=c1nc(-c2ccc3c(c2)CCO3)cc[nH]1` (system: Solute carrier family 12 member 5 (Homo sapiens)).
## Result 8.12 µM
